Reported growth is given for each of the following molecules.
- System: RPMI-8226 leukemia
- Experiment Description: NCI-60 one-dose screen, 48 h (100 = growth as untreated, 0 = no growth, -100 = all killed)
- Condition Context: 10 µM
The panel holds about 83,000 compounds, 20% with a hit somewhere; the sample as a whole holds those more often. Activity calls are given as the source filed them. Rule for the calls: active = growth percent below 10; inactive = the rest.

{"columns": ["Molecule", "growth"],
 "data": [
  ["Clc1ccc(Cc2ccncc2)cc1", "109% (inactive)"],
  ["OCCn1cccn1", "98.2% (inactive)"],
  ["CC1C(=NC(=O)c2cnccn2)C(C)C(c2ccc(Cl)cc2)NC1c1ccncc1 (stereo not given)", "69.1% (inactive)"],
  ["COc1cc(-c2nn(-c3cccc(NC(=O)CCN4CCN(Cc5ccccc5)CC4)c3)cc2-c2ccncc2)ccc1Cl", "-23.2% (active)"],
  ["N#Cc1cnn(C(=O)c2nn(-c3ccc(Cl)cc3)cc2O)c1N", "-37% (active)"]
]}

growth reported for this molecule Clc1nc2ccc(Br)cc2cc1-c1nc2ccccc2[nH]1 : 70.4% (inactive)

For reference, reported growth for COc1ccc(-c2cc(-c3ccc(Cl)cc3)nc(SCCCCCCC(=O)NO)n2)cc1OC stands at -9.15% (active)

Lab book: growth of OC(CNc1ccnc2cc(Cl)ccc12)CNC1CCCCC1 (stereo not given) noted as 65% (inactive)

Please fill in: growth reported for C[C@@H](O)[C@H]1C(=O)N2C(C(=O)O)=C(SC3CN[C@H](C(=O)N(C)C)C3)[C@H](C)[C@H]12 (stereo not given in full) = 96.5% (inactive)

molecule CNC(=O)c1cn2c3c(c(N4CCN(C)CC4)c(F)cc3c1=O)OC[C@@H]2C , growth observed: 96.3% (inactive)

====

- System: RXF 393 renal
- Experiment Description: NCI-60 one-dose screen, 48 h
- Condition Context: 10 µM
Compounds without any hit were thinned out: in the full panel of roughly 83,000, 20% have a hit. The source made the active and inactive calls. How the source made its calls: active means growth percent below 10; inactive means the rest.
Your answer must be one of the following: True (active), False (inactive)

Solved cases (8 shown):
{"columns": ["Compound", "Label Class"],
 "data": [
  ["COc1cc(/C=C2\\CCCC3=C2NC(N)=NC3c2cc(OC)c(OC)c(OC)c2)cc(OC)c1OC (stereo not given)", "True"],
  ["Cc1ccc(NCCN(C)CC(C)O)c2c(=O)c3ccccc3sc12 (stereo not given)", "False"],
  ["Cc1c(O)c(=O)ccn1C1CCC(CC2CCC(n3ccc(=O)c(O)c3C)CC2)CC1 (stereo not given)", "False"],
  ["COc1ccc(C(=O)CC(CC(=O)c2ccc(OC)cc2)c2c(C)nn(-c3ccccc3)c2Cl)cc1", "False"],
  ["COc1cc(-c2nn(-c3cccc(NC(=O)CN4CCOCC4)c3)cc2-c2cccnc2)ccc1Cl", "False"],
  ["O=[N+]([O-])c1ccc2ncccc2c1Cl", "False"],
  ["CCOC(=O)c1cc(C(=O)c2cc(OC)c(OC)c(OC)c2)n2nc(C)ccc12", "False"],
  ["CC(=O)Nc1ccc(S(=O)(=O)c2ccnc3cc(Cl)ccc23)cc1", "False"]
]}

Returns: the outcome recorded for CC1C(=NC(=O)c2cnccn2)C(C)C(c2ccc(Cl)cc2)NC1c1ccncc1 (stereo not given) in this assay.
False

What did the test return for CC(C)C[C@H](NC(=O)Cn1cccc(CNC(=O)c2ccccc2)c1=O)B(O)O ?
True

State the result this test recorded for O=[N+]([O-])c1cccc(/C=N/NC(=S)NC23CC4CC(CC(C4)C2)C3)c1 .
False

====

- System: BT-549 breast
- Experiment Description: NCI-60 one-dose screen, 48 h (100 = growth as untreated, 0 = no growth, -100 = all killed)
- Condition Context: 10 µM
Compounds without any hit were thinned out: in the full panel of roughly 83,000, 20% have a hit.
Measured growth by item
Write the value in % as a bare number.

Some entries whose results are on file:
{"columns": ["Compound", "Subject Of Test", "Reported"],
 "data": [
  ["COc1cc(/C=C2\\CCCC3C2=Nc2ccccc2NC3c2cc(OC)c(OC)c(OC)c2)cc(OC)c1OC (stereo not given)", "BT-549 breast", -16.4],
  ["C[N+]1(CCCCC[N+]2(C)CCCC2)CCCC1", "BT-549 breast", 77.8],
  ["Clc1ccc(C2=NN=C3C(Cc4ccccc4)=Nc4ccccc4N3C2)cc1", "BT-549 breast", 88.8]
]}

Looking up CNC(=O)c1cc(Oc2ccc3c(c2)sc2nc(-c4ccc(N)cc4)cn23)ccn1 , I see its growth listed as 5.56

Entry under test: COc1cc(/C=C/c2cc(/C=C/c3ccc(O)c(OC)c3)nc(N)n2)ccc1O . Its growth was -24.4

====

// growth lookup, one value per entry
- System: NCI-H460 lung
- Experiment Description: NCI-60 one-dose screen, 48 h (100 = growth as untreated, 0 = no growth, -100 = all killed)
- Condition Context: 10 µM
Compounds without any hit were thinned out: in the full panel of roughly 83,000, 20% have a hit.
Response body: numeric value in %, unit text excluded.

Completed entries (count: 5):
{"columns": ["Molecule", "Unit Of Measurement", "growth"],
 "data": [
  ["CCc1cc(Cl)c(OC)c(C(=O)NCC2CCCN2CC)c1O (stereo unspecified)", "%", 104],
  ["O=S(=O)(NCCCNc1nccc(-c2cn(-c3ccccc3)nc2-c2ccc(Cl)c(O)c2)n1)c1ccccc1", "%", 46.3],
  ["CS(=O)(=O)c1nccc(-c2c(-c3cccc(OCc4ccccc4)c3)nc3sccn23)n1", "%", 103],
  ["Nc1ccn(Cc2nnc(CCC(=O)c3nc4ccccc4[nH]3)o2)c(=O)n1", "%", 34.6],
  ["CC(C)(C)OC(=O)N1CCc2c(sc3ncnc(N/N=C/c4cccc5ccccc45)c23)C1", "%", 4.98]
]}

Turning now to a further molecule:
Lab note: measured growth of O=C(O)c1cn(C2CC2)c2cc(N3CCN(C(=O)c4cc(-c5ccc(Cl)cc5)nc5ccccc45)CC3)c(F)cc2c1=O was 96.1

====

- Tested on: KM12 colon
- Experiment Description: NCI-60 one-dose screen, 48 h (100 = growth as untreated, 0 = no growth, -100 = all killed)
- Condition Context: 10 µM
This is part of a sample that, as a whole, favours compounds with a hit. Of some 83,000 tested, about 20% had one in any assay. Active and inactive are the calls of the source. The calls were made as follows: active = growth percent below 10; inactive = the rest.
Value Kind: growth

{"columns": ["Molecule", "growth"],
 "data": [
  ["CCN(CC)CCCC(C)Nc1c2ccc(Cl)cc2nc2ccc(OC)cc12 (stereo not given)", "22.1% (inactive)"]
]}

For this molecule ( COc1cc(/C=C2\CCCC3=C2N=C2SC(C)=CN2C3c2cc(OC)c(OC)c(OC)c2)cc(OC)c1OC (stereo not given) ), measured growth is -80.4% (active)

Per the records, this molecule ( COc1ccc(CCN2CCC(Nc3nc4ccccc4n3Cc3ccc(F)cc3)CC2)cc1 ) has growth equal to 17.7% (inactive)

# molecule COc1cc(-c2nn(-c3cccc(NC(=O)CN4CCOCC4)c3)cc2-c2cccnc2)ccc1Cl ; its growth = 71.9% (inactive)

Input CC[C@@H](C(=O)[C@@H](C)[C@@H](O)[C@H](C)[C@@H]1O[C@@H]([C@@H](CC)C(=O)O)CC[C@@H]1C)C1O[C@]2(C=CC(=O)[C@]3(CC[C@@](C)([C@H]4CC[C@](O)(CC)[C@H](C)O4)O3)O2)[C@H](C)C[C@@H]1C (stereo not given in full) . Output growth: 36% (inactive)

molecule CCN1C(=O)CC(SC2CC(=O)N(CC)C2=O)C1=O (stereo not given) , growth observed: 104% (inactive)

The recorded growth for CCOC(=O)c1cc(C(=O)c2ccc(OC)c(OC)c2)n2c1ccc1ccc3cccnc3c12 is 28.8% (inactive)

Record Cc1ccc(C2NC(=S)N3C(c4ccc(C)cc4)NC(=S)N23)cc1 (stereo not given) . Reported growth: 8.36% (active)

# growth of O=C1/C(=C/c2ccc3c(c2)OCO3)SC(=S)N1C1c2ccccc2Oc2ccccc21 = 96.6% (inactive)

// Nc1ccn(Cc2nnc(CCC(=O)c3nc4ccccc4[nH]3)o2)c(=O)n1 : growth value = 84.4% (inactive)

The measured growth associated with O=S(=O)(Oc1ccc(-c2ccc3sccc3c2)cc1)c1ccccc1 reads 110% (inactive)

The measured growth associated with CCOC(=O)c1cc(C(=O)c2cc(OC)c(OC)c(OC)c2)n2ncc3ccccc3c12 reads 39.6% (inactive)

Form field growth, entry COc1cc(-c2nc3ccccc3o2)cc(CN2CCCCC2)c1O : 44.9% (inactive)

Value of growth reported for the molecule O=[N+]([O-])c1cccc(/C=N/NC(=S)NC23CC4CC(CC(C4)C2)C3)c1 is 95.2% (inactive)

// field: growth; key: Cc1noc(C)c1CSc1ccccc1C(=O)N1CCN(c2cccc(C(F)(F)F)c2)CC1 ; value = 79.2% (inactive)

Just so you know, measured growth for CN(C)CCCSc1ccccc1NC1=C(Cl)C(=O)C(Nc2ccccc2SCCCN(C)C)=C(Cl)C1=O came out at 80.2% (inactive)

In plain terms, CC(C)N(CCOc1cccc(-c2nc3sccn3c2-c2ccnc(S(C)(=O)=O)n2)c1)C(C)C has a documented growth of 87.8% (inactive)

Lab note: measured growth of COC1=CC(=O)OC(c2ccc(OC)cc2)C1 (stereo not given) was 102% (inactive)

# molecule C[C@]12CC[C@@H]3c4ccc(OS(=O)(=O)O)cc4CC[C@H]3[C@@H]1CC[C@@H]2NS(=O)(=O)c1ccc(-c2ccccc2)cc1 ; its growth = 60.5% (inactive)

Lookup result for c1cncc(-c2csc(-c3c[nH]c4ccccc34)n2)c1 ; measured growth: 81.8% (inactive)

So, COc1ccc(-c2nc(-c3nc4ccc(C)cc4[nH]3)cc3c2[nH]c2ccccc23)cc1 ? Its growth was 21% (inactive)
